TEST_TARGET: T1R1/T1R3 receptor (Felis catus, UniProt E3UMS2)
ASSAY_INFO: cell-based
Assay type: cell-based
DETAILS: in the presence of 0.2 mM IMP
VALUE_TYPE: Max resp ΔF/F +IMP (0.2 mM)

>  <COMPOUND>
CCC(CC)NC(=O)c1ccc2c(c1)OCCO2

>  <VALUE_TYPE>
Max resp ΔF/F +IMP (0.2 mM)

>  <NUMERIC_VALUE>
0.8725

$$$$
>  <COMPOUND>
CC1CCCC(NC(=O)c2ccc3c(c2)OCO3)C1C (stereo not drawn)

>  <VALUE_TYPE>
Max resp ΔF/F +IMP (0.2 mM)

>  <NUMERIC_VALUE>
1.175

$$$$
>  <COMPOUND>
O=C(NCCc1ccccc1)C(=O)NCc1cccnc1

>  <VALUE_TYPE>
Max resp ΔF/F +IMP (0.2 mM)

>  <NUMERIC_VALUE>
0.7625

$$$$
>  <COMPOUND>
CCCC(C)NC(=O)/C=C/c1ccc(OC)c(OC)c1 (stereo not drawn)

>  <VALUE_TYPE>
Max resp ΔF/F +IMP (0.2 mM)

>  <NUMERIC_VALUE>
1.07

$$$$
>  <COMPOUND>
COc1cc(C(=O)NC(C(N)=O)c2ccccc2)cc(Cl)c1OC (stereo not drawn)

>  <VALUE_TYPE>
Max resp ΔF/F +IMP (0.2 mM)

>  <NUMERIC_VALUE>
0.415

$$$$
>  <COMPOUND>
CCC(CC)NC(=O)c1ccc(Br)o1

>  <VALUE_TYPE>
Max resp ΔF/F +IMP (0.2 mM)

>  <NUMERIC_VALUE>
1.8425

$$$$
>  <COMPOUND>
O=C(Nc1ccccc1Br)N[C@@H]1c2ccccc2C[C@@H]1O (stereo in doubt)

>  <VALUE_TYPE>
Max resp ΔF/F +IMP (0.2 mM)

>  <NUMERIC_VALUE>
0.378

$$$$
>  <COMPOUND>
CCCC(CCC)C(=O)Nc1ccc2c(c1)OCO2

>  <VALUE_TYPE>
Max resp ΔF/F +IMP (0.2 mM)

>  <NUMERIC_VALUE>
0.908

$$$$
>  <COMPOUND>
CSc1ccc(-c2nnn(Cc3ccccn3)n2)cc1

>  <VALUE_TYPE>
Max resp ΔF/F +IMP (0.2 mM)

>  <NUMERIC_VALUE>
0.678

$$$$

* * *

TEST_TARGET: cat T1R1/T1R3 receptor (Felis catus, UniProt E3UMS2)
ASSAY_INFO: cell-based
Where a name gives a salt, the structure may show the parent alone.
Rule: Thres below 0.01 mM gives 1, anything at or above gives 0.

>  <COMPOUND>
O=c1[nH]c(=O)c2ncn([C@@H]3O[C@H](COP(=O)(O)O)[C@@H](O)[C@H]3O)c2[nH]1 [xanthosine monophosphate, reference compound]

>  <CATEGORY>
0

$$$$
>  <COMPOUND>
NC(=O)c1ncn(C2OC(COP(=O)(O)O)C(O)C2O)n1 (stereo not shown) [Ribavirin 5′-Monophosphate]

>  <CATEGORY>
0

$$$$
>  <COMPOUND>
Nc1ncnc2c1ccn2[C@H]1O[C@@H](COP(=O)(O)O)[C@H](O)[C@@H]1O (stereo in doubt) [7-Deazaadenosine-5′-O-monophosphate]

>  <CATEGORY>
0

$$$$
>  <COMPOUND>
Nc1nc2c(ncn2[C@H]2C[C@H](O)[C@@H](COP(O)(O)=S)O2)c(=O)[nH]1 [2′-Deoxyguanosine-5′-O-monophosphorothioate,sodiumsalt]

>  <CATEGORY>
1

$$$$
>  <COMPOUND>
Nc1nc2c(ncn2[C@H]2C[C@H](O)[C@@H](COP(O)(O)=S)O2)c(=O)[nH]1 [2′-Deoxyguanosine-5′-O-monophosphorothioate (5′-dGMPS)]

>  <CATEGORY>
1

$$$$
>  <COMPOUND>
O=c1nc[nH]c2c1ncn2C1O[C@H](COP(=O)(O)OP(=O)(O)OP(=O)(O)O)[C@@H](O)[C@H]1O (stereo partly shown) [trisodium salt]

>  <CATEGORY>
0

$$$$
>  <COMPOUND>
CNc1ccccc1C(=O)O[C@H]1C[C@H](n2cnc3c(=O)[nH]c(N)nc32)O[C@@H]1COP(=O)(O)O

>  <CATEGORY>
1

$$$$
>  <COMPOUND>
Nc1nc2c(ncn2[C@@H]2O[C@H](COP(O)(O)=S)C(O)C2O)c(=O)[nH]1 (stereo partly shown) [Guanosine-5′-monophosphorothioate]

>  <CATEGORY>
1

$$$$
>  <COMPOUND>
Nc1nc(Cl)c2ncn(C3OC(COP(=O)(O)O)C(O)C3O)c2n1 (stereo not shown)

>  <CATEGORY>
1

$$$$

Where do the numbers come from? From patent US20190021380A1.
